Measured Km of individual entries
Molecular target: KDM5C (Homo sapiens)
Construct: KDM5C1–765 was produced as an N-terminally His6-tagged protein in Sf9 cells; His6 (N); made in house; host or cells: Sf9 cells (provided by the Structural Genomics Consortium)
Sequence (P41229 1-765): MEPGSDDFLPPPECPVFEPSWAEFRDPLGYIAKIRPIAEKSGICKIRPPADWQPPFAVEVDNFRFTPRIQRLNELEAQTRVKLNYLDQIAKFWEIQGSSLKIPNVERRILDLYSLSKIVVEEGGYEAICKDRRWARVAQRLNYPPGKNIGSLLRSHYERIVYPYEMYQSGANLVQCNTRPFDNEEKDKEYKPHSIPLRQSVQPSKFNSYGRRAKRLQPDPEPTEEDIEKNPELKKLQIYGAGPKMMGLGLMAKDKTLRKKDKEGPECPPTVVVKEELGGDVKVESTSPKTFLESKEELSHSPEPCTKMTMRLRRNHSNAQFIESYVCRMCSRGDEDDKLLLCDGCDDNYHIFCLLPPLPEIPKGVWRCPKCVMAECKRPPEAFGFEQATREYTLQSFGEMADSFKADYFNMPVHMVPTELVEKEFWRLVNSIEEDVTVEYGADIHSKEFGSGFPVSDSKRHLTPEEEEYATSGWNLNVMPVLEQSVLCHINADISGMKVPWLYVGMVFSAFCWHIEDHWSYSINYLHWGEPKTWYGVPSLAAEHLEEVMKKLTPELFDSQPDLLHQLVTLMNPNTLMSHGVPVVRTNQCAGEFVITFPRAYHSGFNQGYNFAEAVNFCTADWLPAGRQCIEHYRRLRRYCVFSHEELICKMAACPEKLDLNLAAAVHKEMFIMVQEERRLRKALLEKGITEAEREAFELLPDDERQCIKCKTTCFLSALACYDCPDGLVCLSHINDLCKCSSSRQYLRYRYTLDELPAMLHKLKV
Experiment: Formaldehyde dehydrogenase-coupled demethylation assay, KDM5C
Type: biochemical
Details: KDM5C catalytic domain; apparent, preliminary; FDH/NAD+-coupled formaldehyde assay, 37 °C, 2OG 200 μM, Fe(II) 10 μM, ascorbate 100 μM; mean±s.e.m., n=3
assay.metric: Km (µM)

INSERT INTO results (substance, units_label, test_result) VALUES
  ('ART-Kme3-QTARKSTGGKA [H3(1-15)K4me3, recognized histone H3 N-methylated-lysine peptide substrate for KDM5C, reference compound]', 'µM', 7.6),
  ('ART-Rme2a-QTARKSTGGKA [H3(1-15)K4Rme2a, histone H3 fragment with asymmetric dimethylarginine replacing methylated K4]', 'µM', 29),
  ('ART-Rme2s-QTARKSTGGKA [H3(1-15)K4Rme2s, histone H3 fragment with symmetric dimethylarginine replacing methylated K4]', 'µM', 21.1),
  ('A-Rme2a-TKQTARKSTGGKA [H3(1-15)R2me2a, ''natural'' histone H3 peptide asymmetrically dimethylated at R2]', 'µM', 19);

----------
Target: KDM5C (Homo sapiens)
Construct: KDM5C1–765 was produced as an N-terminally His6-tagged protein in Sf9 cells; His6 (N); made in house; host or cells: Sf9 cells (provided by the Structural Genomics Consortium)
Assay: MALDI MS activity assay, recombinant KDM5C catalytic domain
Format: biochemical
Details: KDM5C 2 μM, peptide 10 μM, 1 h, 37 °C, 2OG 100 μM, ascorbate 100 μM, Fe(II) 10 μM, 50 mM HEPES pH 7.5; MALDI-TOF MS, −14 Da shift
assay.metric: observed arginine demethylation activity

INSERT INTO assay_data (substance, target_or_test_system, test_result) VALUES
  ('SG-Rme2a-GKGGKGLGKGGA [H4(1-15)R3me2a, ''natural'' histone H4 residues 1-15 peptide asymmetrically dimethylated at R3]', 'KDM5C (Homo sapiens)', '+'),
  ('SG-Rme2s-GKGGKGLGKGGA [H4 (1–15) R3me2s, ''natural'' histone H4 residues 1-15 peptide symmetrically dimethylated at R3]', 'KDM5C (Homo sapiens)', '−'),
  ('A-Rme-TKQTARKSTGGKA [H3 (1–15) R2me, ''natural'' histone H3 peptide monomethylated at R2]', 'KDM5C (Homo sapiens)', '+');
